- procedure_summary: Solubility
- Format: physicochemical
- condition: dimethyl sulfoxide

# compound, solubility in dimethyl sulfoxide
measured = [
    ("C/C1=C\\CCC2(C)O[C@H]2C(=O)C2=CC[C@H](C)[C@@](C)(CC1)[C@@H]2C=O (relative stereo)", "soluble"),
    ("CC1=CCCC2(C)OC2C2(O)OCC3=C2C(O)CC(C)C3(C)CC1 (stereo not shown)", "soluble"),
    ("CC1=CCCC2(C)OC2C2(O)OCC3C2=C(O)CC(C)C3(C)CC1 (stereo not shown)", "soluble"),
]

###

- procedure_summary: Solubility
- Format: physicochemical
- condition: acetone

# compound, solubility in acetone
data = [
    ("CC1=CCCC2(C)OC2C2(O)OCC3C2=C(O)CC(C)C3(C)CC1 (stereo not shown)", "partially soluble"),
    ("C/C1=C\\CCC2(C)O[C@H]2C(=O)C2=CC[C@H](C)[C@@](C)(CC1)[C@@H]2C=O (relative stereo)", "partially soluble"),
    ("CC1=CCCC2(C)OC2C2(O)OCC3=C2C(O)CC(C)C3(C)CC1 (stereo not shown)", "partially soluble"),
]

###

- procedure_summary: Solubility
- Format: physicochemical
- condition: hexane

# compound, solubility in hexane
data = [
    ("CC1=CCCC2(C)OC2C2(O)OCC3C2=C(O)CC(C)C3(C)CC1 (stereo not shown)", "insoluble"),
    ("C/C1=C\\CCC2(C)O[C@H]2C(=O)C2=CC[C@H](C)[C@@](C)(CC1)[C@@H]2C=O (relative stereo)", "insoluble"),
    ("CC1=CCCC2(C)OC2C2(O)OCC3=C2C(O)CC(C)C3(C)CC1 (stereo not shown)", "insoluble"),
]

###

- System: PAF-Induced Human Platelet Aggregation
- procedure_summary: PAF-induced human platelet aggregation assay (in vitro PAF antagonism)
- Format: cell-based
- condition: human platelet-rich plasma, 37° C., 2 min preincubation, PAF 1-5×10^-8 M, 0.1% DMSO; read-out: IC50 (PAF activity, inhibition of PAF-induced human platelet aggregation)
endpoint_name: IC50 (nM)

# molecule, IC50 / nM
data = [
    ("CC1=CCCC2(C)OC2C2(O)OCC3=C2C(O)CC(C)C3(C)CC1 (stereo not shown) [III]", 1260),
]

1: CC1=CCCC2(C)OC2C2(O)OCC3C2=C(O)CC(C)C3(C)CC1 (stereo not shown) [II]
2: C/C1=C\CCC2(C)O[C@H]2C(=O)C2=CC[C@H](C)[C@@](C)(CC1)[C@@H]2C=O (relative stereo) [Compound I]
(Q) Lower value of IC50 belongs to which: 1 or 2 ? Answer format: the label of the selected item.
(A) 1
(1: 1680 nM, 2: 6960 nM)
